TARGET_DESC: T1, Peptide B (human PAR-2), C-terminal biotinylated (Human, not fully specified)
T1 construct: also called Peptide B C-Term
T1 peptide: SLIGKVDGTSHVTGGGGGS-biotin
ASSAY_METHOD_TEXT: SPR, peptide immobilized
Where no end group is shown, it is not given here.
Examples of binders with documented T1/2 follow.

- BINDER: "H4H584P (antibody, human IgG4, V domains shown, also called H1H584P variable regions) VH: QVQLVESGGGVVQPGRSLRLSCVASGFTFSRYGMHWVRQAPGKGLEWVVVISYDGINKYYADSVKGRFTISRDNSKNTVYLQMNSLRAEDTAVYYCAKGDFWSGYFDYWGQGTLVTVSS VL: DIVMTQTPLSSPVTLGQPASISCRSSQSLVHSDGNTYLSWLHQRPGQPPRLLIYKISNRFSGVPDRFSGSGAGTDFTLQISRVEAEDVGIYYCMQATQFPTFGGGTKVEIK"
  T1/2 (h): 0.25
- BINDER: "H2M618N (antibody, V domains shown, chimeric: human variable, mouse constant domains) VH: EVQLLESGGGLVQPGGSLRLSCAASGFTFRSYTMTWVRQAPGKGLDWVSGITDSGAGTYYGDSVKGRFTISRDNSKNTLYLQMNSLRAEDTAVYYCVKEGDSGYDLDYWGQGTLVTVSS VL: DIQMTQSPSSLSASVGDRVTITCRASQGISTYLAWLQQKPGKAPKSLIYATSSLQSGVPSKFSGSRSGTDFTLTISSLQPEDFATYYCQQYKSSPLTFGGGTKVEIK"
  T1/2 (h): 1
- BINDER: "H2M591N (antibody, V domains shown, chimeric: human variable, mouse constant domains) VH: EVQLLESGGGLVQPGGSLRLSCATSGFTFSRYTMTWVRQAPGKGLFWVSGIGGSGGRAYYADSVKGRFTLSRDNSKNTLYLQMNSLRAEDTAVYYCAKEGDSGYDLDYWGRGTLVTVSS VL: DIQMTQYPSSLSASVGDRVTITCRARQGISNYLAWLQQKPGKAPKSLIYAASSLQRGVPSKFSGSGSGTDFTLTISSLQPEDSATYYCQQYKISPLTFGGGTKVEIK"
  T1/2 (h): 1.57
- BINDER: "H4H579P (antibody, human IgG4, V domains shown, also called H1H579P variable regions) VH: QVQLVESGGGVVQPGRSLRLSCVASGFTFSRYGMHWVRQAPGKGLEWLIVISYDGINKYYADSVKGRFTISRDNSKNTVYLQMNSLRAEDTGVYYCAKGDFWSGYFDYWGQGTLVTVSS VL: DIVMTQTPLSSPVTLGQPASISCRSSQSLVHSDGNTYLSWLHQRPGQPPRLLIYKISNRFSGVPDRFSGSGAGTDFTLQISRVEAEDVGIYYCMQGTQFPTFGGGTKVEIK"
  T1/2 (h): 1.6
